# Tested on: NCI-H2228 cells
# assay: Tumor cell growth inhibition test (CCK8 detection), NCI-H2228
# Format: cell-based, human
# settings: Homo sapiens, NCI-H2228, 72 hrs
property: IC50 (nM)

INSERT INTO assay_data (compound, unit_annotation, observed) VALUES
  ('[2H]C([2H])([2H])C([2H])(Oc1cc(C2CCNCC2)c(C)cc1Nc1ncc(Cl)c(Nc2ccccc2S(=O)(=O)C(C)C)n1)C([2H])([2H])[2H]', 'nM', 111),
  ('Cc1cc(Nc2ncc(Cl)c(Nc3ccccc3S(=O)(=O)C(C)C)n2)c(OC(C)C)cc1C1CCNCC1 [Ceritinib, reference compound]', 'nM', 97.1);

====

# Test system: Karpas 299 cells
# assay: Tumor cell growth inhibition test (CCK8 detection), Karpas 299
# Format: cell-based, human
# settings: 72 hrs
property: IC50 (nM)
Express it in nM; write the number only.

QUERY: Quick one: IC50 of COc1cc(C2CCNCC2)c(C)cc1Nc1ncc(Cl)c(Nc2ccccc2S(=O)(=O)C(C)C)n1 [Compound I-3] ?
RESULT: 7.64

====

# study target: ALK enzyme (Homo sapiens, UniProt Q9UM73)
# Sequence (Q9UM73 19-1620 limits assumed): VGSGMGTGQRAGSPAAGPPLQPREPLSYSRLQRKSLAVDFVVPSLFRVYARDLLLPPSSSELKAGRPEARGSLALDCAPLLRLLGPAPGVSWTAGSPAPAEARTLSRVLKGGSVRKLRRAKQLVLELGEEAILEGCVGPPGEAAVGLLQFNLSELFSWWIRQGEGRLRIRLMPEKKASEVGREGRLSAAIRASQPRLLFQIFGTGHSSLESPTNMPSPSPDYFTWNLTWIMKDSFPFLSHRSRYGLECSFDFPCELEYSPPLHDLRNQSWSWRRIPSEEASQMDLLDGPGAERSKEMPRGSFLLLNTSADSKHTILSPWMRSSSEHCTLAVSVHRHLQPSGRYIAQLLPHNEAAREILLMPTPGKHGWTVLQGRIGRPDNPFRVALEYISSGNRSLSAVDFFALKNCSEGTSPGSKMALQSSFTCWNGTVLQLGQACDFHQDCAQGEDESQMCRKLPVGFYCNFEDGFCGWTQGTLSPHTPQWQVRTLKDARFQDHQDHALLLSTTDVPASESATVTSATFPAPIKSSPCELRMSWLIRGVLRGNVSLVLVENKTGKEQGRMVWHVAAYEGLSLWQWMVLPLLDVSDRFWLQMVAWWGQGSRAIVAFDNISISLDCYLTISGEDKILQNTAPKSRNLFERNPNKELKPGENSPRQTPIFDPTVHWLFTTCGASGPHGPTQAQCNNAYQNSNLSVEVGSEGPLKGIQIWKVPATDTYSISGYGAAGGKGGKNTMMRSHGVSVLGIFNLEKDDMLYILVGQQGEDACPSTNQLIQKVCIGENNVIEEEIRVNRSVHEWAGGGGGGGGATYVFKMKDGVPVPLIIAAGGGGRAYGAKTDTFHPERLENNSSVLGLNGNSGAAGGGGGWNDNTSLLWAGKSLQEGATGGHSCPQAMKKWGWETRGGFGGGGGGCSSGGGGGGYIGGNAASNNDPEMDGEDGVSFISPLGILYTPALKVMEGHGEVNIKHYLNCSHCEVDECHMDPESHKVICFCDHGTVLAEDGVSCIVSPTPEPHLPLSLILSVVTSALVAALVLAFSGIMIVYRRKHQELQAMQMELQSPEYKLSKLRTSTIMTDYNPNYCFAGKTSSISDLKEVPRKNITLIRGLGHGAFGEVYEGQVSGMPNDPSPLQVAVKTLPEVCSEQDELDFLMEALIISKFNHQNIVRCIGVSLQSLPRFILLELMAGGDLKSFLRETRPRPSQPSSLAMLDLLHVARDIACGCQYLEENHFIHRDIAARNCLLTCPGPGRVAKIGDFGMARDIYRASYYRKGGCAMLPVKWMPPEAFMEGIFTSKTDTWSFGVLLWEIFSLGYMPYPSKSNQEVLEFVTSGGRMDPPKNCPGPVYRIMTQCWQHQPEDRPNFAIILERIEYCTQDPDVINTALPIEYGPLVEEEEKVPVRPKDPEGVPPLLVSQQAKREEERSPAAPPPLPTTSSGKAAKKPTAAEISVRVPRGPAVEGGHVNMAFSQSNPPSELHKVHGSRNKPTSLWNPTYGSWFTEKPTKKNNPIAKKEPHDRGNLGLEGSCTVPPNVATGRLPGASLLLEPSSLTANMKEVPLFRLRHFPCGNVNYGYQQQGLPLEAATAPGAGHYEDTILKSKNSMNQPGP
# assay: In-vitro ALK kinase inhibitory activity (HTRF kinEASE TK kit)
# Format: biochemical
# settings: inhibitory activity for ALK enzyme, read-out: IC50 range
# IC50 per record follows

Here are 4 compounds together with their reported answers.
INSERT INTO assay_data (compound, observed) VALUES
  ('COc1cc(C2CCNCC2)c(C(F)(F)F)cc1Nc1ncc(Cl)c(Nc2ccccc2S(=O)(=O)C(C)C)n1', '1 to 10 nM'),
  ('COc1cc(C2CCNCC2)c(C)cc1Nc1ncnc(Nc2ccccc2S(=O)(=O)C(C)C)n1', '1 to 10 nM'),
  ('COc1cc(N2CCC(N3CCOCC3)CC2)ccc1Nc1ncc(Cl)c(Nc2ccccc2S(=O)(=O)C(C)C)n1', '1 to 10 nM'),
  ('COc1cc(C2CCNCC2)c(C)cc1Nc1ncc(OC)c(Nc2ccccc2S(=O)(=O)C(C)C)n1', '1 to 10 nM');

QUERY: Quick one: IC50 of `C#Cc1cnc(Nc2cc(C)c(C3CCNCC3)cc2OC)nc1Nc1ccccc1S(=O)(=O)C(C)C` ?
RESULT: 1 to 10 nM

QUERY: Quick one: IC50 of `COc1cc(N2CCC(N3CCOCC3)CC2)ccc1Nc1nc(Nc2ccccc2S(=O)(=O)C(C)C)c2ccccc2n1` ?
RESULT: 10 to 100 nM

QUERY: Quick one: IC50 of `COc1cc(C2CCNCC2)c(C)cc1Nc1ncc(-c2ccccc2)c(Nc2ccccc2S(=O)(=O)C(C)C)n1` ?
RESULT: 10 to 100 nM

QUERY: Quick one: IC50 of `COc1cc(C2CCNCC2)c(C)cc1Nc1ncc(C#N)c(Nc2ccccc2S(=O)(=O)C(C)C)n1` ?
RESULT: 1 to 10 nM

QUERY: Quick one: IC50 of CCc1cc(Nc2ncc(Cl)c(Nc3ccccc3S(=O)(=O)C(C)C)n2)c(OC)cc1C1CCNCC1 [Compound 44, reference compound] ?
RESULT: 10 to 100 nM

====

# study target: ALK enzyme (Homo sapiens, UniProt Q9UM73)
# assay: In-vitro ALK kinase inhibitory activity (HTRF kinEASE TK kit)
# Type: biochemical
# settings: inhibitory activity for ALK enzyme, read-out: IC50 range
# IC50 per record follows

Here are 3 molecules together with their reported answers.
INSERT INTO measurements (molecule, property, observed) VALUES
  ('CCOc1cc(C2CCNCC2)c(Cl)cc1Nc1ncc(Cl)c(Nc2ccccc2S(=O)(=O)C(C)C)n1', 'IC50', '0.001 to 0.01 µM'),
  ('COc1cc(C2CCNCC2)c(C)cc1Nc1nc(Nc2ccccc2S(=O)(=O)C(C)C)c2ccccc2n1', 'IC50', '0.01 to 0.1 µM'),
  ('COc1cc(N2CCNCC2)c(C)cc1Nc1ncnc(Nc2ccccc2S(=O)(=O)C(C)C)n1', 'IC50', '0.001 to 0.01 µM');

QUERY: Quick one: IC50 of `COc1cc(C2CCNCC2)c(C#N)cc1Nc1ncc(Cl)c(Nc2ccccc2S(=O)(=O)C(C)C)n1` ?
RESULT: 0.001 to 0.01 µM

QUERY: Quick one: IC50 of `COc1cc(N2CCC(N3CCC(N)CC3)CC2)ccc1Nc1ncc(Cl)c(Nc2ccccc2S(=O)(=O)C(C)C)n1` ?
RESULT: 0.001 to 0.01 µM

QUERY: Quick one: IC50 of `COc1cc(C2CCNCC2)c(C)cc1Nc1ncc(Br)c(Nc2ccccc2S(=O)(=O)C(C)C)n1` ?
RESULT: 0.001 to 0.01 µM

QUERY: Quick one: IC50 of `COc1cc(N2CCC(N3CCN(C)CC3)CC2)ccc1Nc1nc(Nc2ccccc2S(=O)(=O)C(C)C)c2cc[nH]c2n1` ?
RESULT: 0.01 to 0.1 µM

====

# study target: UniProtKB Q9UM73
# assay: In-vitro ALK kinase inhibitory activity (HTRF kinEASE TK kit)
# Format: biochemical
# settings: inhibitory activity for ALK enzyme, listed as 3, read-out: IC50 range
property: IC50

QUERY: Which measured IC50 belongs to `COc1cc(C2CCNCC2)c(C)cc1Nc1ncc(Cl)c(Nc2ccccc2S(=O)(=O)C(C)C)n1` , tested on UniProtKB Q9UM73?
RESULT: 1 to 10 nM

====

# study target: ALK enzyme (Homo sapiens)
# assay: In-vitro ALK kinase inhibitory activity (HTRF kinEASE TK kit)
# Assay type: biochemical
# settings: inhibitory activity for ALK enzyme, read-out: IC50 range
pIC50: −log10 of the molar value.
property: pIC50

INSERT INTO assay_data (molecule, observed) VALUES
  ('COc1cc(N2CCNCC2)c(C)cc1Nc1ncc(Cl)c(Nc2ccccc2S(=O)(=O)C(C)C)n1 [Compound I-17]', '8.00 to 9.00');

QUERY: Quick one: pIC50 of COc1cc(C2CCNCC2)c(C)cc1Nc1ncc(Cl)c(Nc2ccccc2S(=O)(=O)C(C)C)n1 [Compound 45, reference compound] ?
RESULT: 7.00 to 8.00

QUERY: Quick one: pIC50 of CCc1cnc(Nc2cc(C)c(C3CCNCC3)cc2OC)nc1Nc1ccccc1S(=O)(=O)C(C)C [Compound I-9] ?
RESULT: 8.00 to 9.00

QUERY: Quick one: pIC50 of COc1cc(N2CCC(N(C)C)CC2)ccc1Nc1nc(Nc2ccccc2S(=O)(=O)C(C)C)c2sccc2n1 [Compound I-27] ?
RESULT: 7.00 to 8.00

QUERY: Quick one: pIC50 of COc1cc(C2CCNCC2)c(C)cc1Nc1ncc([N+](=O)[O-])c(Nc2ccccc2S(=O)(=O)C(C)C)n1 [Compound I-10] ?
RESULT: 8.00 to 9.00

QUERY: Quick one: pIC50 of COc1cc(C2CCNCC2)c(C)cc1Nc1ncc(C)c(Nc2ccccc2S(=O)(=O)C(C)C)n1 [Compound I-8] ?
RESULT: 8.00 to 9.00

QUERY: Quick one: pIC50 of COc1cc(C2CCNCC2)ccc1Nc1ncc(Cl)c(Nc2ccccc2S(=O)(=O)C(C)C)n1 [Compound I-15] ?
RESULT: 8.00 to 9.00

====

# study target: UniProtKB Q9UM73
# assay: In-vitro ALK kinase inhibitory activity (HTRF kinEASE TK kit)
# Format: biochemical
# settings: inhibitory activity for ALK enzyme, read-out: IC50 range
property: IC50

Here are 6 molecules together with their reported answers.
INSERT INTO results (molecule, observed) VALUES
  ('COc1cc(N2CCC(N3CCN(C)CC3)CC2)ccc1Nc1ncnc(Nc2ccccc2S(=O)(=O)C(C)C)n1 [Compound I-43]', '1 to 10 nM'),
  ('COc1cc(C2CCNCC2)c(C)cc1Nc1nc(Nc2ccccc2S(=O)(=O)C(C)C)c2ccsc2n1 [Compound I-32]', '10 to 100 nM'),
  ('COc1cc(N2CCC(N3CCN(C)CC3)CC2)ccc1Nc1nc(Nc2ccccc2S(=O)(=O)C(C)C)c2[nH]ccc2n1 [Compound I-25]', '10 to 100 nM'),
  ('COc1cc(N2CCC(N(C)C)CC2)ccc1Nc1ncc(Cl)c(Nc2ccccc2P(C)(C)=O)n1 [Compound I-37]', '1 to 10 nM'),
  ('COc1cc(C2CCNCC2)c(C)cc1Nc1ncc(Cl)c(Nc2ccccc2P(C)(C)=O)n1 [Compound I-38]', '1 to 10 nM'),
  ('COc1cc(C2CCNCC2)c(C)cc1Nc1nc(Nc2ccccc2S(=O)(=O)C(C)C)c2cc[nH]c2n1 [Compound I-30]', '10 to 100 nM');

# evaluate next
QUERY: Quick one: IC50 of COc1cc(C2CCNCC2)c(C)cc1Nc1nc(Nc2ccccc2S(=O)(=O)C(C)C)c2[nH]ccc2n1 [Compound I-31] ?
RESULT: 10 to 100 nM
